Data credit: ChEMBL document CHEMBL5500330

molecular target: Peroxisome proliferator-activated receptor gamma (Homo sapiens); test: Agonist activity at human PPAR gamma by luciferase reporter gene assay
Sequence (P37231 whole entry): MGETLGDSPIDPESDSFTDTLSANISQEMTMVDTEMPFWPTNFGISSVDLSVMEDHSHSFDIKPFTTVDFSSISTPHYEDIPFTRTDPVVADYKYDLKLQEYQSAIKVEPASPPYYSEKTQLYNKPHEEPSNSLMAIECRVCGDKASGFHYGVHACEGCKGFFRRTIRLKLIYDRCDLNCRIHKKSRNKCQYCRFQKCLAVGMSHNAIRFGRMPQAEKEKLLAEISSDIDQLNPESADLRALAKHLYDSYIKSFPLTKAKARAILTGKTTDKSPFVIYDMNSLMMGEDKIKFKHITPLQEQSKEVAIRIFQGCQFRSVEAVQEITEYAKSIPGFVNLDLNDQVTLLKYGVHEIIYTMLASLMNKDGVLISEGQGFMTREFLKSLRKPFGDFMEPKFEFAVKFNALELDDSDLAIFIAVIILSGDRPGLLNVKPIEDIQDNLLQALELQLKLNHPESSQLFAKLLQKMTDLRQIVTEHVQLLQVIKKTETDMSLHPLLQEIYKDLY
Measured parameter: pEC50
In textbook form, pEC50 equals minus log to base ten of the concentration in mol/L.

| Molecule | pEC50 |
| --- | --- |
| COc1cccc(COc2cc(/C=C3\SC(Nc4ccc(S(N)(=O)=O)cc4)=NC3=O)ccc2OC)c1 | 5.53 |
| COc1cc(/C=C2\SC(Nc3ccc(S(N)(=O)=O)cc3)=NC2=O)ccc1OCCc1ccccc1 | 4.95 |
| CC(C)(Oc1ccc(CCNC(=O)c2ccc(Cl)cc2)cc1)C(=O)O [BEZAFIBRATE] | 4.08 |

QUERY: Please give measured pEC50 of the following entry: "COc1cccc(COc2ccc(/C=C3\SC(Nc4ccc(S(N)(=O)=O)cc4)=NC3=O)cc2OC)c1"
RESULT: 5.40

----------
target: Peroxisome proliferator-activated receptor delta (Homo sapiens, UniProt Q03181); assay: Agonist activity at human PPAR delta by luciferase reporter gene assay
Sequence (Q03181 whole entry): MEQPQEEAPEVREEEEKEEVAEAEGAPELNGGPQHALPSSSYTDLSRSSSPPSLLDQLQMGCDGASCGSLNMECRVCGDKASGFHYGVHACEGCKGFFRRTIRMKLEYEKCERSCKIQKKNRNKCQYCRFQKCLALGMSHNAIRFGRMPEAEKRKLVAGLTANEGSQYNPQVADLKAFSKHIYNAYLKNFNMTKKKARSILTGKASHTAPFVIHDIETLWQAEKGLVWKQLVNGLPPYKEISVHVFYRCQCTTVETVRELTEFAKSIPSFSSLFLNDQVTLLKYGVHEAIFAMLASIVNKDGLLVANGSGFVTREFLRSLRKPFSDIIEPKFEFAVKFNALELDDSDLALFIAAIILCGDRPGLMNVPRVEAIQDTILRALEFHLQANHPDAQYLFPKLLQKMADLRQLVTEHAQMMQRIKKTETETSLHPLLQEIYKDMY
Reported pEC50 values for a set of molecules
On this scale, pEC50 is minus log10 of a concentration expressed in M (mol/L).

| Molecule | Recorded result |
| --- | --- |
| COc1cc(/C=C2\SC(Nc3ccc(S(N)(=O)=O)cc3)=NC2=O)ccc1OCCc1ccccc1 | 4.79 |

QUERY: Fetch value of pEC50 on Peroxisome proliferator-activated receptor delta (Homo sapiens, UniProt Q03181) for "COc1cc(/C=C2\SC(Nc3ccc(S(N)(=O)=O)cc3)=NC2=O)ccc1OCc1ccc(C)cc1" .
RESULT: 4.32

QUERY: Give pEC50; test system Peroxisome proliferator-activated receptor delta (Homo sapiens, UniProt Q03181); molecule CC(C)(Oc1ccc(CCNC(=O)c2ccc(Cl)cc2)cc1)C(=O)O [BEZAFIBRATE]
RESULT: 4.59

QUERY: GET pEC50 where system = Peroxisome proliferator-activated receptor delta (Homo sapiens, UniProt Q03181) and item = "NS(=O)(=O)c1ccc(NC2=NC(=O)/C(=C/c3ccc(OCc4ccc(Cl)cc4)cc3)S2)cc1"
RESULT: 4.45

QUERY: Look up and report pEC50, with Peroxisome proliferator-activated receptor delta (Homo sapiens, UniProt Q03181) as system, for "COc1cccc(COc2ccc(/C=C3\SC(Nc4ccc(S(N)(=O)=O)cc4)=NC3=O)cc2OC)c1"
RESULT: 4.81

----------
assay: Acute toxicity in male Albino mouse assessed as mortality at upto 2000 mg/kg, po measured upto 7 days; type: organism-based; conditions: in vivo, 168 h, time < 7 day
Measured parameter: Activity

Use these answered entries as a reference point.
| Smiles repr | Activity |
| --- | --- |
| COc1cccc(COc2cc(/C=C3\SC(Nc4ccc(S(N)(=O)=O)cc4)=NC3=O)ccc2OC)c1 | Non-Toxic |
| COc1cc(/C=C2\SC(Nc3ccc(S(N)(=O)=O)cc3)=NC2=O)ccc1OCCc1ccccc1 | Toxic |
| COc1cc(/C=C2\SC(Nc3ccc(S(N)(=O)=O)cc3)=NC2=O)ccc1OCc1ccc(C)cc1 | Toxic |
| NS(=O)(=O)c1ccc(NC2=NC(=O)/C(=C/c3ccc(OCc4ccc(Cl)cc4)cc3)S2)cc1 | Toxic |

Continue with the next compound.
QUERY: Give reported Activity value for "COc1cccc(COc2ccc(/C=C3\SC(Nc4ccc(S(N)(=O)=O)cc4)=NC3=O)cc2OC)c1"
RESULT: Non-Toxic
